Target: Leukotriene, Cysteinyl CysLT1 (Cavia porcellus, UniProt Q2NNR5)
Construct: from tissue; host or cells: guinea pig lung membrane
Sequence (Q2NNR5 whole entry): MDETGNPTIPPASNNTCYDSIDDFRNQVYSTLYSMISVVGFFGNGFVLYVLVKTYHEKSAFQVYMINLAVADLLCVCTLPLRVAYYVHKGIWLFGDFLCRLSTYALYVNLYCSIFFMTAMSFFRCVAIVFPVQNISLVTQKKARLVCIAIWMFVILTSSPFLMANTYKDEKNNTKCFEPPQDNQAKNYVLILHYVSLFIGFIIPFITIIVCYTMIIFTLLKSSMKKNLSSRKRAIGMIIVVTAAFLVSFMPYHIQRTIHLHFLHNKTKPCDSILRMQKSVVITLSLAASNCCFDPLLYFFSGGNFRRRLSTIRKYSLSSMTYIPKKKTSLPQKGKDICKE
Experiment: receptor radio-ligand-binding assay (Tritiated LTD4 as the ligand), Guinea pig lung membrane
Conditions: 0.5 h; 10 nM test compound; 0.2 nM 3H LTD4, Guinea pig lung membrane; read-out: % Inhbition (in nM) 10

compound: COC(=O)c1ccccc1CCC(NC(=O)C1=C(C(=O)O)CCC1)c1cccc(/C=C/c2ccc3ccc(Cl)cc3n2)c1 (stereo not shown)
assayed_target: Leukotriene, Cysteinyl CysLT1 (Cavia porcellus, UniProt Q2NNR5)
inhibition at 0.01 µM: 65%
//
compound: O=C(N[C@H](CCc1ccccc1C(=O)O)c1cccc(/C=C/c2ccc3ccc(Cl)cc3n2)c1)c1ccco1
assayed_target: Leukotriene, Cysteinyl CysLT1 (Cavia porcellus, UniProt Q2NNR5)
inhibition at 0.01 µM: 74%
//
compound: CCOC(COc1ccc(OC)cc1C(=O)NS(C)(=O)=O)c1cccc(/C=C/c2ccc3ccc(Cl)cc3n2)c1 (stereo not shown)
assayed_target: Leukotriene, Cysteinyl CysLT1 (Cavia porcellus, UniProt Q2NNR5)
inhibition at 0.01 µM: 80%
//
compound: CC(=O)OC(CSc1ccccc1C(=O)O)c1cccc(/C=C/c2ccc3ccc(Cl)cc3n2)c1 (stereo not shown)
assayed_target: Leukotriene, Cysteinyl CysLT1 (Cavia porcellus, UniProt Q2NNR5)
inhibition at 0.01 µM: 52%
//
compound: O=C(O)c1ccccc1CCC1(c2cccc(/C=C/c3ccc4ccc(Cl)cc4n3)c2)OCCS1 (stereo not shown)
assayed_target: Leukotriene, Cysteinyl CysLT1 (Cavia porcellus, UniProt Q2NNR5)
inhibition at 0.01 µM: 97%
//
compound: O=C(O)c1ccccc1OCC(OCCc1cccs1)c1cccc(/C=C/c2ccc3ccc(Cl)cc3n2)c1 (stereo not shown)
assayed_target: Leukotriene, Cysteinyl CysLT1 (Cavia porcellus, UniProt Q2NNR5)
inhibition at 0.01 µM: 74%
//
compound: CCN(CC)C(=O)c1ccccc1CCC(NC(=O)c1ccccc1C(=O)OC)c1cccc(/C=C/c2ccc3ccc(Cl)cc3n2)c1 (stereo not shown)
assayed_target: Leukotriene, Cysteinyl CysLT1 (Cavia porcellus, UniProt Q2NNR5)
inhibition at 0.01 µM: 65%

These data points were gathered from patent US9102665B2.
